Test: Phase 1 SAD/MAD study: plasma pharmacokinetics of Compound 1a (LC-MS-MS, noncompartmental analysis)
Type: in vivo, human
Settings: human, plasma, oral, 40 mg, single dose 40 mg, healthy volunteers, geometric mean (geometric CV %); read-out: Tmax
parameter_measured: Tmax (h)

> print(dat)
                               given.smiles  unit.info  numeric.value
1  O.O=C([O-])c1nn[nH]c1Oc1ccc(-c2ccc(C3CC(F)(F)C3)cc2)cc1.[Na+]          h            1.9

###

Test: Phase 1 SAD/MAD study: plasma pharmacokinetics of Compound 1a (LC-MS-MS, noncompartmental analysis)
Type: in vivo, human
Conditions: human, plasma, po, 2000 mg, SAD 2,000 mg oral, fasted, average, plasma; read-out: Tmax
parameter_measured: Tmax (h)

> print(dat)
                               given.smiles  numeric.value
1  O.O=C([O-])c1nn[nH]c1Oc1ccc(-c2ccc(C3CC(F)(F)C3)cc2)cc1.[Na+]           2.94
